Target: Transient receptor potential cation channel subfamily V member 1 (Homo sapiens, UniProt Q8NER1)
Sequence (Q8NER1 whole entry): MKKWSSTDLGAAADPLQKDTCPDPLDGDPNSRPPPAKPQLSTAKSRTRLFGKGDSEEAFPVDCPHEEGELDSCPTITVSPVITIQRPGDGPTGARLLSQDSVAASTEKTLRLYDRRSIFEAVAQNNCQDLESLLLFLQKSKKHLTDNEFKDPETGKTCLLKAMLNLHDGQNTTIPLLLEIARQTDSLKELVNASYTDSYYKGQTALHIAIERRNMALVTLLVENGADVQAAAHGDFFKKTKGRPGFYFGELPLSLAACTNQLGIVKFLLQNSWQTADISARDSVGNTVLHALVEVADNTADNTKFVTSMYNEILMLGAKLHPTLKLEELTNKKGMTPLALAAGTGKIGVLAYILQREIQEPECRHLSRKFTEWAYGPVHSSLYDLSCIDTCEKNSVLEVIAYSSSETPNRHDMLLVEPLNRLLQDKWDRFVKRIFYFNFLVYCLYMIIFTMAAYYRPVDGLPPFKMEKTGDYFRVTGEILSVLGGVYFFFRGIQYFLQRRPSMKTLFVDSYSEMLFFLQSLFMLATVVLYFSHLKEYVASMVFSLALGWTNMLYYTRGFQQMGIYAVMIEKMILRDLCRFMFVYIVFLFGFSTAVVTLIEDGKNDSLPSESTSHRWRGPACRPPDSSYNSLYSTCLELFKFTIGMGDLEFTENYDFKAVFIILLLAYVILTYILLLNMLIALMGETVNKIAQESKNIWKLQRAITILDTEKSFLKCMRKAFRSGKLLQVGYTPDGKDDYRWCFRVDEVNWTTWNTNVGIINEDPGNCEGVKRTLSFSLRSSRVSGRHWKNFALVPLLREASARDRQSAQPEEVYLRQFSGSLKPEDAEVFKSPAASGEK
Assay: Agonist activity at human TRPV1 expressed in CHO cells assessed as increase in capsaicin-induced intracellular calcium flux up to 1 uM by Fluo-3 AM dye based fluorescence assay relative to 1 uM capsaicin
Assay type: cell-based
Give measured Activity for each item. Keep answers brief.
One number for each entry, in %.

[
  {
    "STRUCTURE": "CN1C(=O)CCc2ccc(NC(=O)c3ccc(-c4ccccc4)c(CN4CCCCC4)c3)cc21.Cl",
    "VALUE_UNITS": "%",
    "Activity": 0.6
  }
]

Hey, can you go through the list below and give me Activity for every item?
1. CN(C)c1ccc(NC(=O)c2ccc(-c3ccccc3)c(CN3CCCCC3)c2)cn1
2. CN1C(=O)CCc2ccc(NC(=O)c3ccc(-c4ccccc4)c(CN4CCOCC4)c3)cc21.Cl
3. Cl.O=C(Nc1cccc(O)c1)c1ccc(-c2ccccc2)c(CN2CCCCC2)c1
4. CN1CCCc2ccc(NC(=O)c3ccc(-c4ccccc4)c(CN4CCCCC4)c3)cc21

0.2
1.5
44
2.6

----------
Target: CYP3A4 (Homo sapiens)
Sequence (P08684 whole entry): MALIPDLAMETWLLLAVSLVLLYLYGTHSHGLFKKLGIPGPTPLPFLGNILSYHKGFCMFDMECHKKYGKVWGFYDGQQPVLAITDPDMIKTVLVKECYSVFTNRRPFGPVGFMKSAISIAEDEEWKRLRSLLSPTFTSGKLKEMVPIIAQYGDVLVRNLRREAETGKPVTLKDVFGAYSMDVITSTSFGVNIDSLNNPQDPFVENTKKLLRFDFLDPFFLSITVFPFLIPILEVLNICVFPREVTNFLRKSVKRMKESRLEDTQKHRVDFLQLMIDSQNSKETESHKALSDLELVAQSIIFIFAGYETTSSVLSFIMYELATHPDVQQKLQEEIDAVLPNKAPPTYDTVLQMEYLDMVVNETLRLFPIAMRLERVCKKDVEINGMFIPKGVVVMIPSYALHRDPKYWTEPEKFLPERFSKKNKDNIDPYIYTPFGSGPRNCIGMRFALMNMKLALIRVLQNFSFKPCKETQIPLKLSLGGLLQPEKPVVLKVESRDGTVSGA
Assay: Time-dependent inhibition of CYP3A4 in human liver microsomes assessed as residual activity at 5 uM using midazolam as substrate by LC-MS/MS analysis relative to control
Type: ADME
Settings: probe midazolam, read-out: Activity
TEST_READOUT: activity at 5 µM (%)
Numbers only, in %.

[
  {
    "STRUCTURE": "COC[C@@H]1CCCN1Cc1cc(C(=O)Nc2ccc3c(c2)N(C)C(=O)CC3)ccc1-c1ccccc1.O=C(O)C(=O)O",
    "MEASUREMENT_TARGET": "CYP3A4 (Homo sapiens)",
    "VALUE_UNITS": "%",
    "activity at 5 µM": 34
  },
  {
    "STRUCTURE": "Cl.O=C1COc2ccc(NC(=O)c3ccc(-c4ccccc4)c(CN4CCCCC4)c3)cc2N1",
    "MEASUREMENT_TARGET": "CYP3A4 (Homo sapiens)",
    "VALUE_UNITS": "%",
    "activity at 5 µM": 102
  },
  {
    "STRUCTURE": "Cl.O=C(Nc1ccc2scnc2c1)c1ccc(-c2ccccc2)c(CN2CCCCC2)c1",
    "MEASUREMENT_TARGET": "CYP3A4 (Homo sapiens)",
    "VALUE_UNITS": "%",
    "activity at 5 µM": 38
  },
  {
    "STRUCTURE": "CN1C(=O)CCc2ccc(NC(=O)c3ccc(-c4ccccc4)c(CN4CCOCC4)c3)cc21.Cl",
    "MEASUREMENT_TARGET": "CYP3A4 (Homo sapiens)",
    "VALUE_UNITS": "%",
    "activity at 5 µM": 65
  },
  {
    "STRUCTURE": "CN1C(=O)CCc2ccc(NC(=O)c3ccc(-c4ccccc4)c(CN4CCCCC4)c3)cc21.Cl",
    "MEASUREMENT_TARGET": "CYP3A4 (Homo sapiens)",
    "VALUE_UNITS": "%",
    "activity at 5 µM": 106
  }
]

Items follow; give activity at 5 µM for each.
1. C[C@@H]1CCCN1Cc1cc(C(=O)Nc2ccc3c(c2)N(C)C(=O)CC3)ccc1-c1ccccc1.Cl
2. CN(C)c1ccc(NC(=O)c2ccc(-c3ccccc3)c(CN3CCCCC3)c2)cn1

92
89

# map each compound to its activity at 5 µM
1. Cl.O=C1CCc2ccc(NC(=O)c3ccc(-c4ccccc4)c(CN4CCCCC4)c3)cc2N1
2. Br.Br.O=C(Nc1ccc2cccnc2c1)c1ccc(-c2ccccc2)c(CN2CCCCC2)c1

[96, 52]
